Data provenance is the RNAGym collection of RNA variant scans (doi:10.7554/elife.80360).

Overview of recorded self-cleavage for various variants
B1: HDV Ribozyme (parent)
chain: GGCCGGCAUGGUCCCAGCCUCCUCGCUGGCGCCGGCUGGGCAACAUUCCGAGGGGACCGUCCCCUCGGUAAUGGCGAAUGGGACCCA

Variants of: B1
Assay: self-cleavage, relative activity (ratio to wild type); higher = more cleavage; co-transcriptional
Give a plain numeric answer without units written out.

[[record]]
mutation_code = "A42U C63G"
assay_metric = "self-cleavage"
reading = 0.504

[[record]]
mutation_code = "G25A A83G"
assay_metric = "self-cleavage"
reading = 0.151


Lookup: Report self-cleavage for G1U U12G please.
Found: 0.369

Lookup: Report self-cleavage for U20A G54C please.
Found: 0.196

Lookup: Report self-cleavage for C30G G31C please.
Found: 0.104
